# Tested on: RAW-Dual (murine macrophage reporter line)
# assay: IRF reporter (Lucia luciferase) activity fold change vs agonist alone; higher = enhanced IRF activity
# settings: modulator concentration 10 µM; agonist: LPS 0.1 ug/mL
Task for the reader: assign each of the following molecules its reported IRF reporter.
Answers are plain numbers.

Cc1cc(C(=O)N2C3CCC2c2cncnc2C3)n(C)n1 (configuration not stated)    1.19
Cc1ccc(C)c2sc(N3CCN(C)CC3)nc12.Cl    1.04
CC[C@@H](C(N)=O)N1CCCC1=O    0.88
CC(C)N(CCC(C(N)=O)(c1ccccc1)c1ccccn1)C(C)C (configuration not stated)    0.94
O=C(O)c1nn(Cc2ccc(Cl)cc2Cl)c2ccccc12    1.04

Report IRF reporter for each item below.
1. COC(=O)COc1ccc(C=C2C(=O)NC(=S)N(c3cccc(Cl)c3Cl)C2=O)cc1OC
2. CC12CCC3C(CC=C4CC(O)CCC43C)C1CC(=Cc1cccc(F)c1)C2=O (configuration not stated)
3. CCOC(=O)Nc1ccc(NCc2ccc(F)cc2)cc1N

1. 1.35
2. 1.61
3. 1.2

Report IRF reporter for each item below.
1. C1CCc2nnnn2CC1
2. COc1cc2c(cc1O)CC1c3c(cc(O)c(OC)c3-2)CCN1C (configuration not stated)
3. Br.NCCc1cc(O)c(O)cc1O
4. CCC1(C)CC(=O)NC(=O)C1

1. 1.11
2. 1.17
3. 1.32
4. 1.02

###

# System: RAW-Dual (murine macrophage reporter line)
# assay: IRF reporter (Lucia luciferase) activity fold change vs agonist alone; higher = enhanced IRF activity
# settings: modulator concentration 10 µM; agonist: MPLA […]
Task for the reader: assign each of the following compounds its reported IRF reporter.
One number for each entry.

Record excerpt, results attached:
CC(=O)Oc1ccc(C=Cc2cc(OC(C)=O)cc(OC(C)=O)c2)cc1    0.896
OCC(O)Cc1ccc2c(c1)OCO2 (stereo unspecified)    1.53
CCC1CN2CCC1CC2C(O)c1ccnc2ccc(OC)cc12 (stereo unspecified)    1.33
COc1ccc(CNCCc2c[nH]c3ccccc23)cc1C    2.55
CC12CCC3C(CCC4CC(=O)CCC43C)C1CCC2=O (stereo unspecified)    1.23
COC(=O)COc1ccc(C=C2C(=O)NC(=S)N(c3cccc(Cl)c3Cl)C2=O)cc1OC    1.14
Cc1cccc(COc2ccc(C=C3C(=O)NC(=S)NC3=O)cc2)c1    0.969
CN1C(=O)NC(=O)C(=Cc2cc(Br)cc(Cl)c2O)C1=O    0.942

Report IRF reporter for each item below.
1. C=C1C[C@@H]2[C@H](CC[C@]3(C)C(=O)CC[C@@H]23)[C@@]2(C)C=CC(=O)C=C12
2. Cl.N=C(N)NN
3. CC(=O)OC1CCC2(C)C(=CCC3C4CCC(=O)C4(C)CCC32)C1 (stereo unspecified)

1: 0.908; 2: 1.25; 3: 1.15

###

Task for the reader: assign each of the following compounds its reported IRF reporter.
# Test system: RAW-Dual (murine macrophage reporter line)
# assay: IRF reporter (Lucia luciferase) activity fold change vs agonist alone; higher = enhanced IRF activity
# settings: modulator concentration 10 µM; agonist: 3'3'-cGAMP 10 ug/mL
Give bare numbers.

Record excerpt, results attached:
Cc1cc(C(=O)N2C3CCC2c2cncnc2C3)c(C)o1 (centres undefined)    0.974
CCCC(=O)c1ccc(N2CCNCC2)c(F)c1    0.861
Clc1cccc(CNCCc2c[nH]c3ccccc23)c1    1.13
COc1ccc2c(c1O)-c1c(OC)c(OC)cc3c1C(C2)N(C)CC3 (centres undefined)    0.903
CN1C(=O)NC(=O)C(=Cc2ccc([N+](=O)[O-])s2)C1=O    0.895
CC12CCC3C(CCC4CC(=O)CCC43C)C1CCC2=O (centres undefined)    1.04

Report IRF reporter for each item below.
1. CC12CCC3C(CCC4CC(O)CCC43C)C1CCC2=O (centres undefined)
2. COc1ccc(CNCCc2c[nH]c3ccccc23)cc1OC
3. C#CCOc1ccc(C=C2C(=O)NC(=O)N(c3cc(OC)c(Cl)cc3OC)C2=O)cc1Cl
4. CCOC(=O)c1ccccc1-c1ccc(C=C2C(=O)NC(=O)N(c3cccc(C)c3)C2=O)o1
5. CN1C2CCC1CC(OC(=O)C(CO)c1ccccc1)C2 (centres undefined)
6. COCCN1C(=O)CN(C2CCN(CC(=O)N3CC(C)OC(C)C3)CC2)C1=O (centres undefined)

1: 0.949; 2: 0.763; 3: 0.952; 4: 1; 5: 0.91; 6: 0.95

Report IRF reporter for each item below.
1. COc1cc2c(c(OC)c1OC)-c1ccc(OC)c(=O)cc1C(NC(C)=O)CC2 (centres undefined)
2. OCC(O)Cc1ccc2c(c1)OCO2 (centres undefined)
3. CC(C)NC(C)C(O)c1ccc2c(c1)CCCC2.Cl (centres undefined)
4. COc1cc(CNCCc2ccc(OC)c(OC)c2)cc(OC)c1
5. COc1cc(CNCCc2c[nH]c3ccccc23)cc(OC)c1O

1. 0.0948
2. 0.988
3. 0.818
4. 1.02
5. 0.93
